- System: Fibroblast
- testProtocol: Multiplex assay against human fibroblast
- Type: toxicity, cell-based
- testConditions: 24 h, 10 µM, compound concentration 10 uM, replicate 1
# Total Cell Count values compiled below
parameterMeasured: Total Cell Count

INSERT INTO assay_data (compound, tgt, result) VALUES
  ('O=c1[nH]c2ccccc2n1C1CCN(Cc2ccc(-c3[nH]c4cc5ncnc5cc4nc3-c3ccccc3)cc2)CC1', 'Fibroblast', 437),
  ('COc1cc2ncn(-c3cc(OCc4ccccc4C(F)(F)F)c(C(N)=O)s3)c2cc1OC [GW843682X]', 'Fibroblast', 171),
  ('CC(C)c1noc(N2CCC(COc3ccc(-c4ccc(S(C)(=O)=O)cc4)nc3)CC2)n1 [GSK-1292263]', 'Fibroblast', 178),
  ('Cc1ccccc1C(c1ccccc1C)N1C2CCC1CC(O)(c1ccccc1)C2 (stereo not drawn)', 'Fibroblast', 159),
  ('C=CC(=O)Nc1cccc(Sc2nc(Nc3ccc(N4CCN(C)CC4)cc3)ncc2Cl)c1', 'Fibroblast', 285),
  ('COc1ccccc1CN[C@H]1C2CCN(CC2)[C@H]1C(c1ccccc1)c1ccccc1 [CP-96345]', 'Fibroblast', 156),
  ('COc1cc(Nc2nccc(-c3cnn4nc(OC)ccc34)n2)cc(C(F)(F)F)c1', 'Fibroblast', 273),
  ('CNC(=O)Nc1ccc(-c2nc(N3CC4CCC(C3)O4)c3cnn(C4CCC5(CC4)OCCO5)c3n2)cc1', 'Fibroblast', 93),
  ('CC(C)OC(=O)N1CCC(Oc2ncnc3c2cnn3-c2ccc(S(C)(=O)=O)cc2F)CC1', 'Fibroblast', 156),
  ('COC(=O)C1=C(C)NC(C)=C(C(=O)OCCCN2CCC(c3ccccc3)(c3ccccc3)CC2)[C@H]1c1cccc([N+](=O)[O-])c1 [NIGULDIPINE]', 'Fibroblast', 135),
  ('CC(C)NC(=O)N1CC[C@H](NC2=Nc3cc(F)ccc3N(CC(F)F)c3ccc(Cl)cc32)C1', 'Fibroblast', 163),
  ('CCCSc1nc(N[C@@H]2C[C@H]2c2ccc(F)c(F)c2)c2nnn([C@@H]3C[C@H](OCCO)[C@@H](O)[C@H]3O)c2n1 [TICAGRELOR]', 'Fibroblast', 133),
  ('CC(C)(C)NC[C@H](O)COc1nsnc1N1CCOCC1 [TIMOLOL]', 'Fibroblast', 99),
  ('Cc1ccc2c(c1)c1c(n2CCc2ccc(C)nc2)CCN(C)C1 [LATREPIRDINE]', 'Fibroblast', 189),
  ('Cl.O=C(O)c1cc(-c2ccc(C3CCNCC3)cc2)c2ccc(-c3ccc(C(F)(F)F)cc3)cc2c1', 'Fibroblast', 131),
  ('C=CC(=O)Nc1ccc2[nH]c(=O)n(C3CCN(Cc4ccc(-c5nc6cc[nH]c(=O)c6cc5-c5ccccc5)cc4)CC3)c2c1 [Borussertib]', 'Fibroblast', 347),
  ('CN1CCN(Cc2ccc(Nc3ncc(Cl)c(Nc4ccccc4S(=O)(=O)N(C)C)n3)cc2)CC1 [DUBERMATINIB]', 'Fibroblast', 116),
  ('Cc1c[nH]c2nccc(Oc3c(F)cc(Nc4cc(Cl)nc(N)n4)cc3F)c12 [BAY-549]', 'Fibroblast', 152);
